- Tested on: Tetrahymena pyriformis
- Method description: 48 h IGC50 (-log10 mol/L); higher = more toxic
Property name: 48 h IGC50 (-log10 mol/L)
Answers are plain numbers.

Worked set:
CCC#N
1.03
CCCc1ccc(O)cc1
3.64
c1ccc(-c2ccncc2)cc1
3.66
CCCC(O)CC (configuration not stated)
2.15
CC/C=C\CCCCCC=O
3.95

Provide 48 h IGC50 (-log10 mol/L) values for the following items, in order.
1. C=CCOC(=O)CC#N
2. O=[N+]([O-])c1cc(C(F)(F)F)ccc1Cl
3. c1ccc2c(c1)[nH]c1ccccc12

*A*
2.21
3.85
3.91

Provide 48 h IGC50 (-log10 mol/L) values for the following items, in order.
1. Brc1ccncc1.Cl
2. CC(=O)OC/C=C/c1ccccc1
3. Nc1c(Cl)cc(Cl)cc1[N+](=O)[O-]
4. C=CC(O)CC (configuration not stated)
5. N#CC(Cl)Cl
6. CCOC(=O)C(C)C(=O)OCC
7. O=C(O)CCCCBr
8. NC(=O)c1cc(Cl)ccc1[N+](=O)[O-]

*A*
[2.44, 3.59, 4.26, 1.65, 3.97, 2.49, 2.31, 2.68]

*Q* Query: 48 h IGC50 (-log10 mol/L); subject: CCCCCC#CC=O
*A* 4.72
